The measured values listed here are drawn from patent US20180325861A1.

conditions: after 13 days in 4 C

- Compound: "CC(C)Cc1ccc(C(C)C(=O)O)cc1 (centres unmarked) [Ibuprofen]"
  Visual: "clear"
- Compound: "O=C(N[C@H](CO)[C@H](O)c1ccc([N+](=O)[O-])cc1)C(Cl)Cl [Chloramphenicol]"
  Visual: "clear"
- Compound: "CCOC(=O)c1ccc(N)cc1 [Benzocaine]"
  Visual: "clear"

---

conditions: after 13 days in 4 C
Measurement kind: Particle size (nm)
# value in nm; strip the unit string

Worked examples follow.
- Compound: "O=C(N[C@H](CO)[C@H](O)c1ccc([N+](=O)[O-])cc1)C(Cl)Cl"
  Particle size [nm]: 29.64
- Compound: "CCOC(=O)c1ccc(N)cc1"
  Particle size [nm]: 65.82

Inquiry: Give a short answer stating reported Particle size for CC(C)Cc1ccc(C(C)C(=O)O)cc1 (stereo not shown) .
Reply text: 67.86

Inquiry: Give a short answer stating reported Particle size for CC(C)CCC[C@@H](C)[C@H]1CC[C@H]2[C@@H]3CC=C4C[C@@H](O)CC[C@]4(C)[C@H]3CC[C@]12C .
Reply text: 86.94

---

settings: after 13 days in 4 C
Measurement kind: PDI
In your answer, state the number alone without any accompanying words.

Worked examples follow.
- Compound: "CC(C)Cc1ccc(C(C)C(=O)O)cc1 (stereo not shown)"
  Recorded result: 0.367
- Compound: "O=C(N[C@H](CO)[C@H](O)c1ccc([N+](=O)[O-])cc1)C(Cl)Cl"
  Recorded result: 0.172
- Compound: "CC(C)CCC[C@@H](C)[C@H]1CC[C@H]2[C@@H]3CC=C4C[C@@H](O)CC[C@]4(C)[C@H]3CC[C@]12C"
  Recorded result: 0.516

Please turn your attention to the following entry.
Inquiry: Give a short answer stating reported PDI for CCOC(=O)c1ccc(N)cc1 .
Reply text: 0.479

---

Consider the following compounds and their measured Particle size readings.
details: 3 hr after dissolution
# value in nm; strip the unit string

Worked examples follow.
- Compound: "CC(C)Cc1ccc(C(C)C(=O)O)cc1 (centres unmarked)"
  Particle size [nm]: 74.28
- Compound: "O=C(N[C@H](CO)[C@H](O)c1ccc([N+](=O)[O-])cc1)C(Cl)Cl"
  Particle size [nm]: 30.03
- Compound: "CC(C)CCC[C@@H](C)[C@H]1CC[C@H]2[C@@H]3CC=C4C[C@@H](O)CC[C@]4(C)[C@H]3CC[C@]12C"
  Particle size [nm]: 96.43

Please turn your attention to the following entry.
Inquiry: Give a short answer stating reported Particle size for CCOC(=O)c1ccc(N)cc1 .
Reply text: 62.22

---

conditions: 3 hr after dissolution
Marks after values point to notes of the source that are not given here.
Measurement kind: PDI

Inquiry: Give a short answer stating reported PDI for CC(C)Cc1ccc(C(C)C(=O)O)cc1 (stereo not shown) .
Reply text: 0.398

Inquiry: Give a short answer stating reported PDI for O=C(N[C@H](CO)[C@H](O)c1ccc([N+](=O)[O-])cc1)C(Cl)Cl .
Reply text: 0.118

Inquiry: Give a short answer stating reported PDI for CC(C)CCC[C@@H](C)[C@H]1CC[C@H]2[C@@H]3CC=C4C[C@@H](O)CC[C@]4(C)[C@H]3CC[C@]12C .
Reply text: 0.487**

Inquiry: Give a short answer stating reported PDI for CCOC(=O)c1ccc(N)cc1 .
Reply text: 0.449
